Quick reference: kon of the listed items.
# test_system: chicken IgY (chicken)
# measurement_description: BLI; Octet, SAX (streptavidin) biosensors; recombinant Fabs against IgY; KD from a kinetic 1:1 model, global fit over multiple concentrations (partial fits averaged for 3 low-affinity Fabs)

binder	kon (M⁻¹ s⁻¹)
clone 2.1 Fab TA_11 (Fab, V domains shown) VH: EVQLQESGPSLVKPSQTLSLTCSVTGDSITSGYWNWIRKFPGNRLEYMGYISYSGSTYYNPSLKSRISITRDTSKNQYYLQLNSVTTEDTATYYCARDFDVWGAGTTVTVSS VL: DIVMTQSQKFMSTSVGDRVSVTCKASQNVGTNVAWYQQKPGQSPKALIYSASYRYSGVPDRFTGSGSGTDFTLTISNVQSEDLAEYFCQQYNSYPLTFGSGTKLEIK	153000
clone 2.1 Fab TA_16 (Fab, V domains shown) VH: EVQLQESGPSLVKPSQTLSLTCSVTGDSITSGYWNWIRKFPGNKLEYMGYISYSGSTYYNPSLKSRISITRDTSKNQYYLQLNSVTTEDTATYYCARDFDVWGAGTTVTVSS VL: DIVMTQSQKFMSTSVGDRVSVTCKASQNVGTNVGWYQQKPGQSPKSLIFSASYRYSGVPDRFTGSGSGTDFTLTISNVQSEDLAEYFCQQYNSYPLTFGSGTKLEIK	221000
clone 2.1 Fab TA_13 (Fab, V domains shown) VH: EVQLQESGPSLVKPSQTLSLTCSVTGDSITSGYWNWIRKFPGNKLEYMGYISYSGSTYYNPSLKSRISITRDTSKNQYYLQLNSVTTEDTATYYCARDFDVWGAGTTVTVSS VL: DIVMTQSQKFMSTSVGDRVSVTCKASQNVGTNVGWFQQKPGQSPKALIYSASYRYSGVPDRFTGSGSGTDFTLTISNVQSEDLAEYFCHQYYSYPLTFGSGTKLEIK	216000
clone 2.1 Fab TA_1 (Fab, V domains shown) VH: EVQLQESGPSLVKPSQTLSLTCSVTGDSITSGYWNWIRKFPGNRLEYMGYISFSGSTYYNPSLKSRISITRDTSKNQYYLQLNSVTTEDTATYYCARDFDVWGAGTTVTVSS VL: DIVMTQSQKFMSTSVGDRVSVTCKASQNVGTNVGWYQQKPGQSPKALIYSASYRYSGVPDRFTGSGSGTDFTLTISNVQSEDLAEYFCQQYNSYPLTFGSGTKLEIK	126000
clone 2.1 Fab TA_14 (Fab, V domains shown) VH: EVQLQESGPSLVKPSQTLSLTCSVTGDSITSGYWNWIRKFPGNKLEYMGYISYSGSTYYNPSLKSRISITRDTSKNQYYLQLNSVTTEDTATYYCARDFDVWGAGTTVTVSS VL: DIVMTQSQKFMSTSVGDRVSVTCKASQNVGTNVAWYQQKPGQSPKSLIYSASYRYSGVPDRFTGSGSGTDFTLTISNVQSEDLAEYFCQQYNSYPLTFGSGTKLEIK	223000
clone 2.1 Fab TA_5 (Fab, V domains shown) VH: EVQLQESGPSLVKPSQTLSLTCSVTGASITSGYWNWIRKFPGNKLEYMGYISYSGSTYYNPSLKSRISITRDTSKNQYYLQLNSVTTEDTATYYCARDFDVWGAGTTVTVSS VL: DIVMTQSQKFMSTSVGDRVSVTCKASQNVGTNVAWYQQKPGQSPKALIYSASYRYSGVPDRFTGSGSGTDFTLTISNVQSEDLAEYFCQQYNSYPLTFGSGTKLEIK	225000
clone 2.1 Fab TA_25 (Fab, V domains shown) VH: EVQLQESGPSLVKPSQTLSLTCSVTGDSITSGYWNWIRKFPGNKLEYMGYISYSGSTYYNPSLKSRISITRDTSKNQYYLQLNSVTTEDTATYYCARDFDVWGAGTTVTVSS VL: DIVMTQSQKFMSTSVGDRVSVTCKASQNVGTNVAWYQQKPGQSPKALIYSASYRYSGVPDRFTGSGSGTDFTLTISNVQSEDLAEYFCHQYYSYPLTFGSGTKLEIK	129000
clone 2.1 Fab TA_3 (Fab, V domains shown) VH: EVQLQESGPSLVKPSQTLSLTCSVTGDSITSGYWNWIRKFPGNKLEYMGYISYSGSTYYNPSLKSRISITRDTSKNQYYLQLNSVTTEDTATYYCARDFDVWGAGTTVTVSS VL: DIVMTQSQKFMSTSVGDRVSVTCKASQNVGTNVVWYQQKPGQSPKALIYSASYRYSGVPDRFTGSGSGTDFTLTISNVQSEDLAEYFCQQYNSYPLTFGSGTKLEIK	142000
clone 2.1 Fab CB_01 (clonal burst) (Fab, V domains shown) VH: EVQLQESGPSLVKPSQTLSLTCSVTGDSITSGYWNWIRKFPGNKLEYMGYISYSGSTYYNPSLKSRISFTRDTSKNQYYLQLNSVTTEDTATYYCARDFDVWGAGTTVTVSS VL: DIVMTQSQKFMSTSVGDRVSVTCKASQNVGTNVAWSQQKPGQSPKALIYSASYRYSGVPDRFTGSGSGTDFTLTISNVQSEDLAEYFCQQYKSYPLTFGSGTKLEIK	105000
clone 2.1 Fab TA_22 (Fab, V domains shown) VH: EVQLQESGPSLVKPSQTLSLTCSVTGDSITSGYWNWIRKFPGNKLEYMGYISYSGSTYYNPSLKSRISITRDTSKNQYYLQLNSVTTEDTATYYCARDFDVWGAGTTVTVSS VL: DIVMTQSQKFMSTSVGDRVSVTCKASQNVGTNVAWYQQKPGQSPKALIYSASYRYSGVPDRFTGSGSGTDFTLTISNVQSEDLAEYFCQQYSSYPLTFGSGTKLEIK	83500
